# protocol.notes: The drug is tested on WLS-220 corresponding to human gut metagenome with ENA study accession number: PRJEB37062 and ENA sample accession number: ERS12561769 for biotransformation under anaerobic condition. The drug concentrations were measured over 9 timepoints collected between 0 and 24 hours of incubation by liquid-chromatography-coupled mass spectrometry (LC–MS); note: call rule not given here
# settings: 2 µM
property: Bacterial Biotransformation

As a guide, the following entries are already answered.
Looking up CN(C)C(=O)C(CCN1CCC(O)(c2ccc(Cl)cc2)CC1)(c1ccccc1)c1ccccc1 [LOPERAMIDE] , I found its Bacterial Biotransformation recorded as Compound metabolized

The reported Bacterial Biotransformation of the compound O=C(Nc1ccccc1)OCC(CN1CCCCC1)OC(=O)Nc1ccccc1 (configuration not stated) was Compound metabolized

Looking up CCC(COC(=O)c1cc(OC)c(OC)c(OC)c1)(c1ccccc1)N(C)C.O=C(O)/C=C\C(=O)O (configuration not stated) , I found its Bacterial Biotransformation recorded as Compound metabolized

Bacterial Biotransformation in this record for CC(Oc1c(Cl)cccc1Cl)C1=NCCN1 (configuration not stated) : Compound NOT metabolized

Reported Bacterial Biotransformation of COc1ccc2[nH]c([S+]([O-])Cc3ncc(C)c(OC)c3C)nc2c1 (configuration not stated) : Compound metabolized

***
Lab note: measured Bacterial Biotransformation of CC(C)NCC(O)COc1ccc(COCCOC(C)C)cc1.CC(C)NCC(O)COc1ccc(COCCOC(C)C)cc1.O=C(O)/C=C/C(=O)O (configuration not stated) [BISOPROLOL FUMARATE] was Compound metabolized

Reported Bacterial Biotransformation for COc1c(C)c2c(c(O)c1C/C=C(\C)CCC(=O)OCCN1CCOCC1)C(=O)OC2 [MYCOPHENOLATE MOFETIL] was Compound metabolized

Bacterial Biotransformation for "CC(C)c1c(C(=O)Nc2ccccc2)c(-c2ccccc2)c(-c2ccc(F)cc2)n1CC[C@@H](O)C[C@@H](O)CC(=O)O" is Compound NOT metabolized

Lab book: Bacterial Biotransformation of "OCCOCCN1CCN(C2=Nc3ccccc3Sc3ccccc32)CC1" noted as Compound metabolized

Just so you know, measured Bacterial Biotransformation for "C#C[C@]1(O)CC[C@H]2[C@@H]3CCC4=CC(=O)CC[C@@H]4[C@H]3CC[C@@]21CC" came out at Compound metabolized

Consider "Cc1ccc(-c2cc(C(F)(F)F)nn2-c2ccc(S(N)(=O)=O)cc2)cc1" . Its measured Bacterial Biotransformation is Compound metabolized

====

# protocol.notes: The drug is tested on Z-025 corresponding to rabbit gut metagenome with ENA study accession number: PRJEB37062 and ENA sample accession number: ERS12561824 for biotransformation under anaerobic condition. The drug concentrations were measured over 9 timepoints collected between 0 and 24 hours of incubation by liquid-chromatography-coupled mass spectrometry (LC–MS)
# settings: 2 µM
property: Bacterial Biotransformation

Per the record, CC(O)(CS(=O)(=O)c1ccc(F)cc1)C(=O)Nc1ccc(C#N)c(C(F)(F)F)c1 (stereo not drawn) [BICALUTAMIDE] has Bacterial Biotransformation of Compound NOT metabolized

The recorded Bacterial Biotransformation for entry COc1ccccc1OCC(O)CN1CCN(CC(=O)Nc2c(C)cccc2C)CC1 (stereo not drawn) [RANOLAZINE] equals Compound NOT metabolized

Lab note: O=P(O)(O)O.c1ccc(CN(CC2=NCCN2)c2ccccc2)cc1 [ANTAZOLINE PHOSPHATE] gave Bacterial Biotransformation of Compound NOT metabolized

Item: CCC(COC(=O)c1cc(OC)c(OC)c(OC)c1)(c1ccccc1)N(C)C.O=C(O)/C=C\C(=O)O (stereo not drawn) | Bacterial Biotransformation: Compound NOT metabolized

New cases:
Bacterial Biotransformation reading for CS(=O)(=O)O.OC(CCN1CCCCC1)(c1ccccc1)c1ccccc1 [PRIDINOL METHANESULFONATE] : Compound NOT metabolized

c1ccc([C@H]2CN3CCSC3=N2)cc1 [LEVAMISOLE] has a reported Bacterial Biotransformation of Compound NOT metabolized

For record "CCCCC(=O)N(Cc1ccc(-c2ccccc2-c2nnn[nH]2)cc1)[C@H](C(=O)O)C(C)C" the listed Bacterial Biotransformation is Compound NOT metabolized

Item: Nc1c2c(nc3ccccc13)CCCC2 [TACRINE] | Bacterial Biotransformation: Compound NOT metabolized

In plain terms, CCN(CC)CCNC(C(=O)OCCC(C)C)c1ccccc1.Cl.Cl (stereo not drawn) has a documented Bacterial Biotransformation of Compound NOT metabolized

Recorded result, CCCCc1nc(Cl)c(CO)n1Cc1ccc(-c2ccccc2-c2nn[nH]n2)cc1 [LOSARTAN] , Bacterial Biotransformation: Compound NOT metabolized

Entry CCN1CCCC1CNC(=O)c1cc(S(N)(=O)=O)ccc1OC (stereo not drawn) [SULPIRIDE] ; Bacterial Biotransformation = Compound NOT metabolized

Record summary for C#C[C@]1(O)CC[C@H]2[C@@H]3CCC4=Cc5oncc5C[C@]4(C)[C@H]3CC[C@@]21C [DANAZOL] : reported Bacterial Biotransformation = Compound metabolized

// field: Bacterial Biotransformation; key: COCCc1ccc(OCC(O)CNC(C)C)cc1.COCCc1ccc(OCC(O)CNC(C)C)cc1.O=C(O)C(O)C(O)C(=O)O (stereo not drawn) [METOPROLOL TARTRATE] ; value = Compound metabolized
